Target: T1, LAG-3 (human, UniProt P18627 23-450, limits assumed)
T1 sequence (looked up): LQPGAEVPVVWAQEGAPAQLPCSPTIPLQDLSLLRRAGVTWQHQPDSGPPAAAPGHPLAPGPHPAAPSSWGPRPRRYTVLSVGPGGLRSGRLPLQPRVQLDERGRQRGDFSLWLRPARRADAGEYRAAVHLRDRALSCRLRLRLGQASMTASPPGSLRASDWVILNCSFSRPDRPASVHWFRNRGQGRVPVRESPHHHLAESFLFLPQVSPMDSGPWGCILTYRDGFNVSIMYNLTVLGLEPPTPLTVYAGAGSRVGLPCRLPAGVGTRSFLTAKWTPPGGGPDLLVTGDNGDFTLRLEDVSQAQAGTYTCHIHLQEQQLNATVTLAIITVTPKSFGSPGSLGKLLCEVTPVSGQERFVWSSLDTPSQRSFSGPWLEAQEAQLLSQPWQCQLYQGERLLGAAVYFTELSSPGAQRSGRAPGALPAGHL
Experiment: cell-based or functional assay
Entries and their EC50 of T cell proliferation (CCK8) in mixed lymphocyte reaction
Please respond with the number in µg/mL and leave the unit unwritten.

Reference set, count: 2
>  <binder>
人源化抗体HA-2 (human IgG4 / human Ck) (antibody, V domains shown) VH: QVQLVQSGAEVKKPGASVKVSCKASGYTFTDTYMHWVRQAPGQGLEWIGKIDPANGNTKYDPKFQGRATITADTSISTAYMELSRLRSDDTAVYYCARDTTVGLDYWGQGTLVTVSS VL: DIVITQSPAFLSVTPGEKVTITCRASSSVNYMYWYQQKPDQAPKLLIYYTSKLASGVPSRFSGSGSGTDYTFTISSLEAEDAATYYCQQWSSNPHTFGGGTKVEIKR

>  <unitName>
µg/mL

>  <reportedMeasurement>
0.0271

$$$$
>  <binder>
人源化抗体HA-4 (human IgG4 / human Ck) (antibody, V domains shown) VH: QVQLVQSGAEVKKPGASVKVSCKASGYNITDTYMHWVRQAPGQGLEWIGKIDPANGNTKYDPKFQGRATITADTSISTAYMELSRLRSDDTAVYYCARDTTVGLDYWGQGTLVTVSS VL: DIVITQSPAFLSVTPGEKVTITCRASSSVNYMYWYQQKPDASPKLWIYYTSKLASGVPSRFSGSGSGTDYTFTISSLEAEDAATYYCQQWSSNPHTFGGGTKVEIKR

>  <unitName>
µg/mL

>  <reportedMeasurement>
0.0338

$$$$

-- ask Could you share which EC50 of T cell proliferation (CCK8) in mixed lymphocyte reaction value was measured for 人源化抗体HA-5 (human IgG4 / human Ck) (antibody, V domains shown) VH: QVQLVQSGAEVKKPGASVKVSCKASGYNIKDTYMHWVKQAPGQGLEWIGKIDPANGNTKYDPKFQGKATITADTSISTAYMELSRLRSDDTAVYYCARDTTVGLDYWGQGTLVTVSS VL: DIVITQSPAFLSVTPGEKVTITCRASSSVNYMYWYQQKPDASPKLWIYYTSKLASGVPARFSGSGSGTSYTFTISSLEAEDAATYYCQQWSSNPHTFGGGTKVEIKR ?
-- reply 0.0318
